Source listed as paper PMC6736568.

Documented Inhibition (%) across a set of compounds
test system: Cryptosporidium parvum; assay: qRT-PCR assay of the growth of C. parvum in vitro in HCT-8 host cells (primary and secondary screening, EC50); format: cell-based; settings: primary screening at 10 uM
Give the quantity in %, number only.

Consider the following illustrative entries.
C[N+](C)(C)CC(O)CC(=O)O.[Cl-] (stereo not drawn) [CARNITINE (dl) HYDROCHLORIDE]; -3.41
COc1cc([C@@H]2c3cc4c(cc3[C@H](OC(C)=O)[C@H]3COC(=O)[C@@H]23)OCO4)cc(OC)c1OC [PICROPODOPHYLLIN ACETATE]; 20.82
COc1ccc(-c2cc(=O)c3c(O)c(OC)c(OC)c(OC)c3o2)cc1OC; 91.41

Continue with the next compound.
For reference, reported Inhibition (%) for "CC1=CC(=O)[C@H]2C(C)(C)CCC[C@]2(C)[C@@]1(O)CCc1ccoc1" stands at -14.64

###

test system: HCT-8 host cells (Hs18S); conditions: primary screening at 10 uM, treated vs control
Structures can show the parent of a compound that is named as a salt.
Rule: Hs18S ΔCT below -0.2 gives Y. Equal to or above -0.2 gives N.

# count of solved cases: 3
Cn1c(=O)c2[nH]cnc2n(C)c1=O; Y
CC(C)=CC1C(C(=O)O)C1(C)C (stereo not drawn); Y
COC(=O)C1=CO[C@@H](C)[C@H]2CN3CC[C@]4(C(=O)Nc5ccccc54)[C@@H]3C[C@H]12; N

Does the reported Hs18S ΔCT of the following molecule sit strictly below -0.2? "COc1c2ccoc2cc2oc(=O)ccc12"
N

Does the reported Hs18S ΔCT of the following molecule sit strictly below -0.2? CC(C)CCC[C@@H](C)[C@H]1CC[C@H]2[C@@H]3CC=C4C[C@@H](OC(=O)c5ccccc5)CC[C@]4(C)[C@H]3CC[C@]12C [CHOLESTERYL BENZOATE]
N

Does the reported Hs18S ΔCT of the following molecule sit strictly below -0.2? "C[C@@H]1O[C@@H](Oc2c(-c3ccc(O)c(O)c3)oc3cc(O)cc(O)c3c2=O)[C@H](O)[C@H](O)[C@H]1O"
Y

Does the reported Hs18S ΔCT of the following molecule sit strictly below -0.2? C[N+]12CC[C@@]34c5ccccc5N5C(=O)C[C@@H]6OCC=C(C1)[C@H](C[C@@H]32)[C@@H]6[C@H]54 (stereo partly drawn) [[…]]
N

Does the reported Hs18S ΔCT of the following molecule sit strictly below -0.2? S=C=NCc1ccccc1 [BENZYL ISOTHIOCYANATE]
N

Does the reported Hs18S ΔCT of the following molecule sit strictly below -0.2? CC(=O)Oc1cc(OC(C)=O)c2c(c1)O[C@H](c1ccc(OC(C)=O)c(OC(C)=O)c1)[C@@H](OC(C)=O)C2 [CATECHIN PENTAACETATE]
Y

Does the reported Hs18S ΔCT of the following molecule sit strictly below -0.2? CC(=O)Oc1cc2c(cc1OC(C)=O)[C@@H]1c3ccc(OC(C)=O)c(OC(C)=O)c3OC[C@]1(OC(C)=O)C2 [HAEMATOXYLIN PENTAACETATE]
N

Does the reported Hs18S ΔCT of the following molecule sit strictly below -0.2? "COc1ccc(-c2cc(=O)c3ccccc3o2)cc1"
N

Does the reported Hs18S ΔCT of the following molecule sit strictly below -0.2? CC(=O)c1c(O)c(C)c(O)c2c1OC1=CC(=O)C(C(C)=O)C(=O)C12C (stereo not drawn)
Y

Does the reported Hs18S ΔCT of the following molecule sit strictly below -0.2? "COc1ccc2c(c1)OC/C(=C/c1ccc(OC)c(OC)c1)C2=O"
N

Does the reported Hs18S ΔCT of the following molecule sit strictly below -0.2? CC[C@H]1OC(=O)C[C@@H](O)[C@H](C)[C@@H](O[C@@H]2O[C@H](C)[C@@H](O[C@H]3C[C@@](C)(O)[C@@H](O)[C@H](C)O3)[C@H](N(C)C)[C@H]2O)[C@@H](CC=O)C[C@@H](C)C(=O)/C=C/C(C)=C/[C@@H]1CO[C@@H]1O[C@H](C)[C@@H](O)[C@@H](OC)[C@H]1OC [TYLOSIN TARTRATE]
N

Does the reported Hs18S ΔCT of the following molecule sit strictly below -0.2? "COc1ccc(-c2coc3cc(OC)ccc3c2=O)cc1"
N

###

test: in vitro; conditions: human
PROPERTY LABEL: cytotoxicity at 41 h, 10 µM (%)
Give the quantity in %, number only.

COC(=O)c1c(C)cc(O)cc1O [METHYL ORSELLINATE]; 19.6
C[C@]1(OC(=O)/C=C/c2ccccc2)C[C@@H](O)[C@]2(O)C=CO[C@@H](O[C@@H]3O[C@H](CO)[C@@H](O)[C@H](O)[C@H]3O)[C@@H]21 [HARPAGOSIDE]; 21.8
O=C1O[C@H]([C@@H](O)CO)C(O)=C1O; 26.2
C=C1CCC2C(CC2(C)C)C(=O)CCC1O (stereo not drawn); -18.7

For reference, reported cytotoxicity at 41 h, 10 µM for "C[C@]12CC[C@H]3[C@@H](CC[C@]4(O)C[C@@H](O)CC[C@]34C=O)[C@@]1(O)CC[C@@H]2C1=CC(=O)OC1" stands at 100

For reference, reported cytotoxicity at 41 h, 10 µM for COc1c(CC(=O)c2cc3c(cc2O)OC(C)(C)C(O)C3)ccc2c1C=CC(C)(C)O2 (stereo not drawn) [DIHYDROMUNDULETONE] stands at -7.4

For reference, reported cytotoxicity at 41 h, 10 µM for Oc1cc(O)c2c(c1)O[C@H](c1ccc(O)c(O)c1)[C@H](O)C2 [EPICATECHIN] stands at -6.3

For reference, reported cytotoxicity at 41 h, 10 µM for C=C[C@H]1C[N@@]2CC[C@H]1C[C@@H]2[C@@H](O)c1ccnc2ccc(OC)cc12 [QUINIDINE GLUCONATE] stands at -2

###

tested on: HCT-8 host cells (Hs18S); conditions: primary screening at 10 uM, treated vs control
PROPERTY LABEL: Hs18S ΔCT
I'd appreciate a reply containing only the number, no unit.

CC(C)[C@@H]1NC(=O)[C@H](C)OC(=O)[C@@H](C(C)C)NC(=O)[C@@H](C(C)C)OC(=O)[C@H](C(C)C)NC(=O)[C@H](C)OC(=O)[C@@H](C(C)C)NC(=O)[C@@H](C(C)C)OC(=O)[C@H](C(C)C)NC(=O)[C@H](C)OC(=O)[C@@H](C(C)C)NC(=O)[C@@H](C(C)C)OC1=O [Valinomycin, reference compound]; -0.13

For reference, reported Hs18S ΔCT for C=C1CC/C=C(\C)CC[C@@H]2[C@@H]1CC2(C)C [CARYOPHYLLENE [t(-)]] stands at 0.32

###

test system: HCT-8 host cells (Hs18S); settings: primary screening at 10 uM, treated vs control
PROPERTY LABEL: Hs18S ΔCT
I'd appreciate a reply containing only the number, no unit.

Consider the following illustrative entries.
C[C@@H](O)[C@H](N)C(=O)O; -0.26
CC(=O)O[C@@H]1CC2C(C)(C)C(=O)C3OC3[C@]2(C)C2CC[C@@]3(C)[C@H](c4ccoc4)OC(=O)C4OC43[C@@]21C (stereo partly shown); -0.46
CC(=O)O[C@@H]1C[C@H]2C(C)(C)C(=O)C=C[C@]2(C)[C@H]2CC[C@]3(C)C(=CC(=O)O[C@H]3c3ccoc3)[C@@]21C; 0.24
COc1cc(OC)c(-c2c(OC)cc(OC)cc2OC)c(OC)c1; 0.08
CC(=O)Oc1cc(OC(C)=O)c2c(c1)O[C@H](c1ccc(OC(C)=O)c(OC(C)=O)c1)[C@H](OC(C)=O)C2 [EPICATECHIN PENTAACETATE]; -0.02

Test item "Cc1cc(=O)oc2cc(O)ccc12" ; HCT-8 host cells (Hs18S); reported Hs18S ΔCT was -0.28

Test item "CC(=O)OCC1=C(C(=O)O)N2C(=O)[C@@H](N)[C@H]2SC1" ; HCT-8 host cells (Hs18S); reported Hs18S ΔCT was 0.19

###

tested on: HCT-8 host cells (Hs18S); conditions: primary screening at 10 uM, treated vs control
PROPERTY LABEL: Hs18S ΔCT
I'd appreciate a reply containing only the number, no unit.

Consider the following illustrative entries.
C=C(C)[C@@H]1[C@H]2OC(=O)[C@@H]1[C@]1(O)C[C@H]3O[C@]34C(=O)O[C@H]2[C@]14C [PICROTOXININ]; -0.81
C=C(C)CCCC(C)CCOC(C)=O (centres unmarked) [RHODINYL ACETATE]; 0.17
C=C(C)[C@H]1CN[C@H](C(=O)O)[C@H]1CC(=O)O [KAINIC ACID]; -0.04
COc1cccc2c1cc([N+](=O)[O-])c1c(C(=O)O)cc3c(c12)OCO3 [ARISTOLOCHIC ACID]; -0.03
C[C@@H]1CC[C@H]2[C@](C)(CO)[C@@H](O)CC[C@]2(C)[C@@]12CC[C@@](CO)(CCO)O2 [LAGOCHILIN]; 0.60
O=C(O)[C@H]1O[C@@H](Oc2cc3oc(-c4ccccc4)cc(=O)c3c(O)c2O)[C@H](O)[C@@H](O)[C@@H]1O [BAICALIN]; -0.23
COc1cc2c(cc1OC)[C@H](C)NCC2 [SALSOLIDINE]; 0.32

Continue with the next compound.
For reference, reported Hs18S ΔCT for CN1CCc2cc3c(cc2[C@H]1[C@@H]1OC(=O)c2c1ccc1c2OCO1)OCO3 [BICUCULLINE (+)] stands at -1.43
